SYSTEM UNDER TEST: HDAC3 (Homo sapiens, UniProt O15379)
Construct: purchased Reaction Biology Corporation (assay run by the CRO)
Sequence (O15379 whole entry): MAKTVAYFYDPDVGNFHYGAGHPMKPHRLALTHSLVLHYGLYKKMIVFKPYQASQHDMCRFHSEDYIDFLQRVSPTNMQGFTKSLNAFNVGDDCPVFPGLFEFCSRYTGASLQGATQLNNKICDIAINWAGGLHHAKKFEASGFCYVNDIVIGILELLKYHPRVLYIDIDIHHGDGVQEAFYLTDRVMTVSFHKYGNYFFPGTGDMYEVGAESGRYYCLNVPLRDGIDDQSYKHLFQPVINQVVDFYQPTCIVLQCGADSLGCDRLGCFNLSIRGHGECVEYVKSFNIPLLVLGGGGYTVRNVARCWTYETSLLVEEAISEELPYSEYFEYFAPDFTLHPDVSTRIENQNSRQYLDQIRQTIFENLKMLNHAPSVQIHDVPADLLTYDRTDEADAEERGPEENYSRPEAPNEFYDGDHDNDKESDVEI
Sequence (Q9Y618 395-489 partner limits assumed): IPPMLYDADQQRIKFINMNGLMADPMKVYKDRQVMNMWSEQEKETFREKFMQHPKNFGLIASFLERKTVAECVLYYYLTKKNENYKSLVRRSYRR
EXPERIMENT NOTES: HDAC3 inhibition, full IC50 measurement (Reaction Biology; fluorogenic p53 peptide RHKK(Ac)AMC)
Assay type: biochemical
STATED CONDITIONS: Conc. 1.00E-05 M, t1
Peptide text beside a SMILES is read from it.
# binarize HDAC3 activity raw data (signal): threshold 30000 inclusive, high side label 1, low side label 0

| MOLECULE | SYSTEM UNDER TEST | GROUP |
| --- | --- | --- |
| NCCCC[C@@H]1NC(=O)[C@@H]2CCCN2C(=O)[C@H](CC(N)=O)NC(=O)[C@H](CCCCCS)NC(=O)CNC(=O)[C@H](Cc2c[nH]c3ccccc23)NC(=O)[C@@H](CCCCN)NC(=O)[C@H](CCC(N)=O)NC1=O [des1.1.0, SHA-Asn-Pro-Lys-Gln-dLys-Trp-Gly] (HELM PEPTIDE1{G.[O=C([C@H](CCCCCS)N[*:1])[*:2]].N.P.K.Q.[dK].W}$PEPTIDE1,PEPTIDE1,1:R1-8:R2$$$V2.0) | HDAC3 (Homo sapiens, UniProt O15379) | label 0 |
| CC(C)[C@@H]1NC(=O)[C@H](CCCNC(=N)N)NC(=O)[C@@H](CC(=O)O)NC(=O)[C@H](CO)NC(=O)[C@@H](CO)NC(=O)[C@@H](CCC(=O)O)NC(=O)[C@H](Cc2ccc(O)cc2)NC(=O)[C@H](CCCCCS)NC1=O [des4.2.0, SHA-Tyr-dGlu-dSer-Ser-dAsp-Arg-Val] (HELM PEPTIDE1{R.V.[O=C([C@H](CCCCCS)N[*:1])[*:2]].Y.[dE].[dS].S.[dD]}$PEPTIDE1,PEPTIDE1,1:R1-8:R2$$$V2.0) | HDAC3 (Homo sapiens, UniProt O15379) | label 0 |
| C[C@H](O)[C@H]1NC(=O)[C@H](Cc2c[nH]c3ccccc23)NC(=O)[C@H](CCCCCS)NC(=O)[C@H](CCCCN)NC(=O)[C@@H](CC(=O)O)NC(=O)[C@@H](CCCCN)NC(=O)[C@@H](CO)NC(=O)[C@H](CC(N)=O)NC(=O)[C@H](CC(=O)O)NC1=O [des2.1.0, SHA-Trp-dThr-Asp-Asn-dSer-dLys-dAsp-Lys] (HELM PEPTIDE1{D.N.[dS].[dK].[dD].K.[O=C([C@H](CCCCCS)N[*:1])[*:2]].W.[dT]}$PEPTIDE1,PEPTIDE1,1:R1-9:R2$$$V2.0) | HDAC3 (Homo sapiens, UniProt O15379) | label 0 |
| N=C(N)NCCC[C@H]1NC(=O)[C@@H]2CCCN2C(=O)[C@H](CO)NC(=O)[C@@H](Cc2c[nH]cn2)NC(=O)[C@H](CCCCCS)NC(=O)[C@H](CCCCN)NC(=O)[C@H](Cc2ccc(O)cc2)NC(=O)[C@H]2CCCN2C(=O)[C@@H](CCC(N)=O)NC1=O [des3.1.0, SHA-dHis-Ser-Pro-dArg-dGln-dPro-Tyr-Lys] (HELM PEPTIDE1{K.[O=C([C@H](CCCCCS)N[*:1])[*:2]].[dH].S.P.[dR].[dQ].[dP].Y}$PEPTIDE1,PEPTIDE1,1:R1-9:R2$$$V2.0) | HDAC3 (Homo sapiens, UniProt O15379) | label 1 |
| NCCCC[C@H]1NC(=O)[C@H](CCC(N)=O)NC(=O)[C@H](CCC(=O)O)NC(=O)[C@@H]2CCCN2C(=O)[C@H](CC(N)=O)NC(=O)[C@H](CCCCCS)NC(=O)CNC(=O)[C@H](Cc2c[nH]c3ccccc23)NC1=O [des1.1.1, SHA-Asn-Pro-Glu-Gln-dLys-Trp-Gly] (HELM PEPTIDE1{E.Q.[dK].W.G.[O=C([C@H](CCCCCS)N[*:1])[*:2]].N.P}$PEPTIDE1,PEPTIDE1,1:R1-8:R2$$$V2.0) | HDAC3 (Homo sapiens, UniProt O15379) | label 1 |
| CSCC[C@H]1NC(=O)[C@@H](CO)NC(=O)[C@H](CC(N)=O)NC(=O)[C@H](CC(=O)O)NC(=O)[C@@H]([C@H](C)O)NC(=O)[C@H](Cc2c[nH]c3ccccc23)NC(=O)[C@H](CCCCCS)NC(=O)[C@H](CCCCN)NC(=O)[C@@H](CC(=O)O)NC1=O [des2.1.1, SHA-Trp-dThr-Asp-Asn-dSer-dMet-dAsp-Lys] (HELM PEPTIDE1{D.N.[dS].[dM].[dD].K.[O=C([C@H](CCCCCS)N[*:1])[*:2]].W.[dT]}$PEPTIDE1,PEPTIDE1,1:R1-9:R2$$$V2.0) | HDAC3 (Homo sapiens, UniProt O15379) | label 0 |

Where these numbers come from: paper PMC8185074
